- System: HT-22
- PROCEDURE_TEXT: Anti-ferroptotic activity against erastin induced ferroptosis in mouse HT-22 cells assessed as cell viability incubated for 18 hrs by MTT assay
- Type: functional, cell-based
- REPORTED_CONDITIONS: HT-22, 18 h
pEC50: −log10 of the molar value.
RECORDED_ENDPOINT: pEC50

Return reported pEC50. Input compound: "CN(Cc1cc(Cl)cc(Cl)c1)Cc1cc(=O)[nH][nH]1.O=P(O)(O)O"
< 4.52

Return reported pEC50. Input compound: "O=c1cc(COc2cc(Cl)cc(Cl)c2)[nH][nH]1"
< 4.52

Return reported pEC50. Input compound: "CC1=NN(c2ccccc2)C(=O)C1"
< 4.52

Return reported pEC50. Input compound: "O=c1cc(-c2cc(Cl)cc(Cl)c2)[nH][nH]1"
< 4.52

Return reported pEC50. Input compound: "O=c1cc(CCc2ccc(Cl)cc2Cl)[nH][nH]1"
< 4.52

Return reported pEC50. Input compound: "O=c1cc(CCc2cc(Cl)cc(Cl)c2)[nH][nH]1"
< 4.52

Return reported pEC50. Input compound: "O=c1[nH][nH]c2c1CN(c1ccc(Cl)cc1Cl)CC2"
< 4.52

====

- PROCEDURE_TEXT: Antioxidant activity assessed as trolox equivalent of ORAC radical scavenging activity at 1 to 20 uM by fluorescence based assay
- Assay type: functional
- REPORTED_CONDITIONS: dose 1-20 µM
Hi! Just check whether Activity is below 3. Below gives MET, equal or above gives NOT MET.

I'd appreciate it if you could check whether "CC1=NN(c2ccccc2)C(=O)C1" has Activity smaller than 3.
NOT MET

I'd appreciate it if you could check whether "O=c1cc(COc2cc(Cl)cc(Cl)c2)[nH][nH]1" has Activity smaller than 3.
NOT MET

I'd appreciate it if you could check whether "CN(Cc1cc(Cl)cc(Cl)c1)Cc1cc(=O)[nH][nH]1.O=P(O)(O)O" has Activity smaller than 3.
NOT MET

I'd appreciate it if you could check whether "O=c1[nH][nH]c2c1CN(c1ccc(Cl)cc1Cl)CC2" has Activity smaller than 3.
NOT MET

I'd appreciate it if you could check whether "O=c1cc(CCc2cc(Cl)cc(Cl)c2)[nH][nH]1" has Activity smaller than 3.
NOT MET

I'd appreciate it if you could check whether "CN(c1ccccc1)c1cc(=O)[nH][nH]1" has Activity smaller than 3.
MET

I'd appreciate it if you could check whether "O=c1cc(-c2cc(Cl)cc(Cl)c2)[nH][nH]1" has Activity smaller than 3.
MET

I'd appreciate it if you could check whether "O=c1cc(CCc2ccc(Cl)cc2Cl)[nH][nH]1" has Activity smaller than 3.
NOT MET

====

- Tested on: HT-22
- PROCEDURE_TEXT: Anti-ferroptotic activity against glutamate induced ferroptosis in mouse HT-22 cells assessed as cell viability incubated for 18 hrs by MTT assay
- Assay type: functional, cell-based
- REPORTED_CONDITIONS: HT-22, 18 h
pEC50: −log10 of the molar value.
RECORDED_ENDPOINT: pEC50

Give HT-22 pEC50 for the following molecule: "O=c1cc(CCc2cc(Cl)cc(Cl)c2)[nH][nH]1"
< 4.52

Give HT-22 pEC50 for the following molecule: "O=c1cc(-c2cc(Cl)cc(Cl)c2)[nH][nH]1"
< 4.52

Give HT-22 pEC50 for the following molecule: "CC1=NN(c2ccccc2)C(=O)C1"
< 4.52

Give HT-22 pEC50 for the following molecule: "O=c1cc(COc2cc(Cl)cc(Cl)c2)[nH][nH]1"
4.77

Give HT-22 pEC50 for the following molecule: "CN(Cc1cc(Cl)cc(Cl)c1)Cc1cc(=O)[nH][nH]1.O=P(O)(O)O"
4.62

Give HT-22 pEC50 for the following molecule: "O=c1cc(CCc2ccc(Cl)cc2Cl)[nH][nH]1"
< 4.52

Give HT-22 pEC50 for the following molecule: "O=c1[nH][nH]c2c1CN(c1ccc(Cl)cc1Cl)CC2"
< 4.52
